In this section we review reported TGI values for a set of compounds.
Tested on: U251 CNS
Assay: NCI tumour cell line growth inhibition, 48 h
Property Measured: TGI

| Compound | Target Of Assay | Value |
| --- | --- | --- |
| CCOC(=O)c1c(Br)c(-c2ccc(OC)cc2)c(Br)n1C | U251 CNS | > 100 µM |
| Cc1cn(C2C=CC(CO)O2)c(=O)[nH]c1=O (stereo unspecified) | U251 CNS | > 1000 µM |
| O=S(=O)(O)c1ccc(N=Nc2nc(C(F)(F)F)c(C(F)(F)F)[nH]2)cc1 | U251 CNS | > 100 µM |
| COC(=O)C1=C(OC(=O)/C=C/c2ccccc2)C(C(=O)OC)[C@@]2(O)[C@@H](C(=O)OC)[C@H](C)C[C@@H]1[C@@H]2C(=O)OC (stereo partly specified) | U251 CNS | 45.6 µM |
| Cn1nc(-c2ccc(Cl)cc2)nc2c(=O)n(C)c(=O)nc1-2 | U251 CNS | 2.62 µM |
| CN(C)c1ccc(C=C2C(=O)N(c3ccccc3)N(c3ccccc3)C2=O)cc1 | U251 CNS | > 100 µM |
| O=C1c2ccccc2C(=O)c2c(O)c(NCCCNCCO)cc(O)c21 | U251 CNS | 21.1 µM |
| Cc1c(-c2ccccc2)nn2cc(-c3ccccc3)nnc12 | U251 CNS | 85.7 µM |
| Cc1cc2cc3ccc(N(C)C)cc3nc2cc1N | U251 CNS | 1.61 µM |
| COC(=O)[C@H]1NC(=O)CCSSC1(C)C | U251 CNS | > 100 µM |
| Fc1ccc(N=C/C=C/Nc2ccc(F)cc2)cc1 | U251 CNS | 20.6 µM |

====

Test system: HOP-62 NSCLC
Test: NCI tumour cell line growth inhibition, 48 h
Property: TGI; scope: individual compounds

| Compound | Target Of Assay | Cmp | TGI / µM |
| --- | --- | --- | --- |
| CSC1C(=O)Nc2ccc3ccccc3c21 (stereo not given) | HOP-62 NSCLC | = | 71.8 |
| COc1cc([C@@H]2c3cc4c(cc3[C@@H](Nc3ccccc3C(=O)c3ccccc3)[C@H]3COC(=O)[C@H]23)OCO4)cc(OC)c1OC | HOP-62 NSCLC | > | 100 |
| CCOC(=O)c1sc2nc(SC)nc3c2c1NCN3c1ccc(F)c(F)c1 | HOP-62 NSCLC | = | 34.1 |
| Cc1cc(-c2ccccc2)nc(Nc2nc3ccccc3o2)n1 | HOP-62 NSCLC | > | 100 |
| COC(=O)CCc1ccc2c(c1)C(=O)CC2 | HOP-62 NSCLC | > | 100 |

====

Test system: SF-295 CNS
Assay: NCI tumour cell line growth inhibition, 48 h
Catalogue of compounds with associated TGI

| Compound Structure | Target Of Assay | TGI |
| --- | --- | --- |
| CSCCCS/C1=C/CCCCCCCCCC1 | SF-295 CNS | > 100 µM |
| S=c1[nH]nc(Cc2ccccc2)c(=S)[nH]1 | SF-295 CNS | > 100 µM |
| CCO[C@@]1(COCc2ccccc2)OC(=O)C[C@@H]1N1C(=O)OC[C@@H]1c1ccccc1 | SF-295 CNS | > 100 µM |
| CC(=O)c1ccccc1NCC(=O)Nn1cnc2ccc(S(=O)(=O)Nc3ccccc3C(C)=O)cc2c1=O | SF-295 CNS | > 100 µM |
| COc1ccc2c(c1)CC[C@@H]1[C@@H]2CC[C@]2(C)[C@@H](NC(=O)/C=C/c3ccc(O)c(O)c3)CC[C@@H]12 | SF-295 CNS | 27.1 µM |
